# Tested on: ScN2a
# assay details: Toxicity against mouse ScN2a cells measured as less than 80% confluency after 1 week
# Format: functional
So basically, if Activity comes in under 2000 nM it's criterion met, and if it's 2000 nM or more it's criterion not met.

# structure as smiles, answer label
rows = [
    ("c1ccc(N(CCCN2CCN(CCCNc3c4ccccc4nc4ccccc34)CC2)c2ccccc2)cc1", "criterion met"),
    ("c1ccc2c(c1)Sc1ccccc1N2CCCN1CCN(CCNc2c3ccccc3nc3ccccc23)CC1", "criterion not met"),
    ("c1ccc2c(c1)CCc1ccccc1N2CCCN1CCN(CCNc2c3ccccc3nc3ccccc23)CC1", "criterion met"),
    ("c1ccc2c(c1)CCc1ccccc1N2CCCN1CCN(CCCCNc2c3ccccc3nc3ccccc23)CC1", "criterion met"),
    ("c1ccc(N(CCCN2CCN(CCNc3c4ccccc4nc4ccccc34)CC2)c2ccccc2)cc1", "criterion met"),
    ("c1ccc2c(c1)CCc1ccccc1N2CCCN1CCN(CCCNc2c3ccccc3nc3ccccc23)CC1", "criterion met"),
    ("COc1ccc2nc3cc(Cl)ccc3c(NCCN3CCN(CCCN4c5ccccc5Sc5ccccc54)CC3)c2c1", "criterion not met"),
    ("COc1ccc2nc3cc(Cl)ccc3c(NCCN3CCN(CCCN(c4ccccc4)c4ccccc4)CC3)c2c1", "criterion met"),
]
